This collection of values is drawn from paper PMC9482650.

# experimental-target: T1, HTRA4, P83105
# T1 sequence (P83105 378-476, limits assumed, looked up): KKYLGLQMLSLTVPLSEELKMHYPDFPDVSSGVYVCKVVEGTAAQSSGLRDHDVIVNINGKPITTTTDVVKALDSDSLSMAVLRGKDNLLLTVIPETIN
# assay-summary: holdup assay
# Design: key: below the threshold = too weak to quantify, mostly under pKd 3.1 to 4
# measurement-conditions: plain residues with an end cap or a label only (N-terminal biotin on a linker: ado-ado)
Quick rule: pKd of at least 4 means yes (1), below that means no (0).

binder="GQNMTVSVVI [PRLHR, P49683]" class_assignment="yes (1)"
binder="NISARRFTLC [FAM167B, Q9BTA0]" class_assignment="yes (1)"
binder="GTMFLRETSL [GUCY1A2, P33402]" class_assignment="no (0)"

input: Does DFKHTKSFII [JAM2, P57087] have a reported pKd of at least 4?
output: no (0)
